system: OVCAR-5 ovarian; test: NCI-60 one-dose screen, 48 h (100 = growth as untreated, 0 = no growth, -100 = all killed); conditions: 10 µM unless noted
Compounds without any hit were thinned out: in the full panel of roughly 83,000, 20% have a hit.
# strict inequality: growth < 90% yields satisfied, everything else yields not satisfied

INPUT: I'd appreciate it if you could check whether `C[C@H]1[C@H](C)CC[C@]2(C(=O)NCCNCCN)CC[C@]3(C)C(=CC[C@@H]4[C@@]5(C)CCC(=O)C(C)(C)[C@@H]5CC[C@]43C)[C@H]12` has growth smaller than 90%.
OUTPUT: not satisfied

INPUT: I'd appreciate it if you could check whether `C#Cc1cccc(Nc2ncnc3cc(NC(=O)CCl)ccc23)c1` has growth smaller than 90%.
OUTPUT: satisfied

INPUT: I'd appreciate it if you could check whether `c1ccc(-c2ccc3c(c2)C2(CCNCC2)CN3)cc1` has growth smaller than 90%.
OUTPUT: not satisfied

INPUT: I'd appreciate it if you could check whether `CNCCCNc1nc2ccccc2c2c(=O)c3cc(Cl)ccc3sc12` has growth smaller than 90%.
OUTPUT: satisfied

INPUT: I'd appreciate it if you could check whether `CNC(=O)Nc1ccc(-c2ccc3ncnc(Nc4cccc(Cl)c4)c3c2)cc1` has growth smaller than 90%.
OUTPUT: satisfied

###

Test system: UACC-257 melanoma
Assay: NCI-60 one-dose screen, 48 h (100 = growth as untreated, 0 = no growth, -100 = all killed)
Conditions: 10 µM unless noted
Protocol: Cells are grown in 96 well plates and exposed to the test compound for 48 hours. Compounds are tested at a single concentration, which is 10^-5 M for most compounds. The reported endpoint is percent growth (GI% or GIPRCNT), where numbers from 0 - 100% represent growth inhibition, and numbers from -100% - 0 represent cell death. For example, a value of 40 represents 60% growth inhibition. A value of 0 means no net growth occurred over the course of the experiment. […]
The panel holds about 83,000 compounds, 20% with a hit somewhere; the sample as a whole holds those more often.
Assay endpoint: growth (%)
// units = %; emit number, no label

// growth lookup, compound = `COc1cc(Cc2cc(-c3ccccc3)nn(Cc3ccccc3)c2=O)cc(OC)c1OC` , result: 32

// growth lookup, compound = `O=C(/C=C/c1cn(-c2ccccc2)nc1-c1ccccc1)CCC(=O)NO` , result: 92.7

// growth lookup, compound = `COc1ccc(Nc2ncc(I)c(NCCCNC(=O)C3CCC3)n2)cc1` , result: 75.3

// growth lookup, compound = `O=C1/C(=C/c2c[nH]c(=O)[nH]c2=O)SC(=S)N1Cc1ccccc1` , result: 104

// growth lookup, compound = `COc1cc(Cc2cc(OC)c(O)c(OC)c2)cc(OC)c1O` , result: 89.3

// growth lookup, compound = COC12C=C/C(=C(/C(=O)OCc3csc(SC)n3)C(=O)CCCCCCCCC3(OC)C=C/C(=C(/C(=O)OCc4cnc(SC)s4)C(=O)CCCCCCCC1)O3)O2 (configuration not stated) , result: 56.8

Next compound, please.
// growth lookup, compound = `CS(=O)(=O)Nc1cc(-c2ccc3ncnc(Nc4ccc(F)c(Cl)c4)c3c2)ccc1Cl` , result: 59.6

###

system: HOP-62 NSCLC; assay: NCI-60 one-dose screen, 48 h (100 = growth as untreated, 0 = no growth, -100 = all killed); conditions: 10 µM unless noted
Compounds without any hit were thinned out: in the full panel of roughly 83,000, 20% have a hit.
Collected growth values appear next to each entry.
// units = %; emit number, no label

Some solved cases for reference:
// growth lookup, compound = `Cc1ccc(S(=O)(=O)c2nc(-c3ccccc3)oc2SCC(N)=O)cc1` , result: 98.3

// growth lookup, compound = `O=C(CSc1nnnn1-c1ccccc1)Nc1ccc(Oc2ccccc2)cc1` , result: 95.6

// growth lookup, compound = O=C1CCC(C(=O)N/N=C/c2cc(F)ccc2F)N1 (centres undefined) , result: 103

// growth lookup, compound = `COc1cc(-c2ccc[nH]2)[nH]c1/C=C1\N=C(C)C(CC(=O)OCC(C)(C)C)=C1C` , result: -70.9

// growth lookup, compound = CC(O)Cc1c[nH]c(=O)[nH]c1=O (centres undefined) , result: -56.4

// growth lookup, compound = `CN1C(=O)/C(=C/c2ccc(C(=O)Nc3ncc(Cc4cc(Cl)ccc4Cl)s3)cc2)SC1=S` , result: 72.4

// growth lookup, compound = `Cc1ccc2nc(-c3ccc(C(=O)N/N=C/c4ccc([N+](=O)[O-])cc4)cc3)[nH]c2c1` , result: 108

// growth lookup, compound = `CCOc1ccc(/C=C/C(=O)c2cccc(OCCCOc3cccc(C(=O)/C=C/c4ccc(OCC)cc4)c3)c2)cc1` , result: 107

Others:
// growth lookup, compound = `Nc1cc(C(=O)O)cc(-n2c(O)c(C=C3N=c4ccccc4=N3)sc2=S)c1` , result: 100

// growth lookup, compound = Cc1ccc(C2CC(c3cccc(Nc4ccncc4)c3)=Nc3c(N)nc(N)nc3N2)cc1 (centres undefined) , result: 86.4

// growth lookup, compound = `C=C1C(=O)O[C@H]2[C@H]1CC/C(CNC(=O)Cc1c[nH]c3ccccc13)=C\CC[C@@]1(C)O[C@@H]21` , result: 53.8

// growth lookup, compound = `O=C(NNc1nc2cc(F)ccc2n2c(CN3CCOCC3)ccc12)c1ccccc1` , result: 14.6

// growth lookup, compound = `COc1cc2c(cc1-c1c(C)noc1C)ncc1nc(CN3CCOCC3)n([C@H](C)COC(F)F)c12` , result: 16.6

// growth lookup, compound = O=C(c1ccc(Br)cc1)C(Br)C(c1ccc(Cl)cc1)C(c1ccccc1)[N+](=O)[O-] (centres undefined) , result: 99.7

###

Collected growth values appear next to each entry.
test system: SK-MEL-5 melanoma; experiment: NCI-60 one-dose screen, 48 h (100 = growth as untreated, 0 = no growth, -100 = all killed); details: 10 µM unless noted
The panel holds about 83,000 compounds, 20% with a hit somewhere; the sample as a whole holds those more often.
// units = %; emit number, no label

Some solved cases for reference:
// growth lookup, compound = `COC(=O)c1c(C)nc(C)c2c1C(=O)C=C(NCc1ccccc1)C2=O` , result: 51.4

// growth lookup, compound = `COc1cc(/C=C/C(=O)N2CCN(C(=O)c3cc(OC)c(OC)c(OC)c3)CC2)ccc1OCCCOc1cc2c(cc1OC)C(=O)N1CCC[C@H]1C=N2` , result: 2.69

// growth lookup, compound = `c1ccc(Cn2cc3c(c2-c2ccccc2)CCc2cnoc2-3)cc1` , result: 78.8

// growth lookup, compound = `CN(C)CCC(=O)C1CC1` , result: 106

// growth lookup, compound = COc1ccc(/C=C/C(c2cc(OC)c(OC)c(OC)c2)n2cncn2)cc1O (stereo unspecified) , result: 23.9

// growth lookup, compound = `COc1ccc(/C=C(\C(=O)NCc2cccnc2)S(=O)(=O)c2ccccc2)cc1OC` , result: 64.6

// growth lookup, compound = `COC(=O)/C=C1/SC(=Nc2ccc(F)cc2)N(CCc2c[nH]c3ccc(O)cc23)C1=O` , result: 44.9

// growth lookup, compound = `Cn1c(=O)[nH]c(=O)c2nc3c(nc21)-c1ccccc1C3=O` , result: 98.5

// growth lookup, compound = `Cc1nn(C)c2ncnc(N/N=C/c3cccc(O)c3O)c12` , result: -41.4

// growth lookup, compound = `N#Cc1c(-c2ccccc2)cc(-c2ccccc2)n(CCCCC(=O)NO)c1=O` , result: -53

Others:
// growth lookup, compound = `Cc1ccc(S(=O)(=O)N2CCCN(c3nc(-c4ccccc4)nc4nc(-c5ccccc5)oc34)CC2)cc1` , result: 98.9

// growth lookup, compound = `N=C(N)c1ccc(OCCSCCOc2ccc(C(=N)N)cc2)cc1` , result: 41.4

// growth lookup, compound = `O=C(/C=C/c1ccccc1)c1ccc(-n2cc(CN3CCN(c4cc5c(cc4F)c(=O)c(C(=O)O)cn5C4CC4)CC3)nn2)cc1` , result: 77.6

###

Collected growth values appear next to each entry.
test system: TK-10 renal; experiment: NCI-60 one-dose screen, 48 h (100 = growth as untreated, 0 = no growth, -100 = all killed); settings: 10 µM unless noted
The panel holds about 83,000 compounds, 20% with a hit somewhere; the sample as a whole holds those more often.
// units = %; emit number, no label

// growth lookup, compound = CCOC(=O)c1cnn(CC(C)O)c1NC(=O)NCc1ccccc1C(F)(F)F (configuration not stated) , result: 80.9

Next compound, please.
// growth lookup, compound = `O=C(O)c1cn(C2CC2)c2cc(N3CCN(C(=O)N/N=C/c4cccc5ccccc45)CC3)c(F)cc2c1=O` , result: 94.1
